// provenance: patent US20220098215A1

ASSAY INFO: Calculated lipophilicity, ACD/log P
REPORTED CONDITIONS: Table 3; difference CBI minus MBO, same side chain
LogP ACD Δ: recorded values

[[record]]
molecule = "COc1ccc(/C=C/C(=O)N2CC(CCl)c3c2cc(O)c2oc(C)nc32)cc1O (stereo not shown) [Compound 59]"
measured_parameter = "LogP ACD Δ"
result = 1.61


Prompt: State, in one line, measured LogP ACD Δ of COCCOc1ccc2[nH]c(C(=O)N3CC(CCl)c4c3cc(O)c3oc(C)nc43)cc2c1 (stereo not shown) [Compound 66]
Response: 1.67

Prompt: Give the value of LogP ACD Δ reported for the following: COc1cc2cc(C(=O)N3CC(CCl)c4c3cc(O)c3oc(C)nc43)[nH]c2c(OC)c1OC (stereo not shown) [Compound 23]
Response: 1.67

Prompt: Identify measured LogP ACD Δ associated with CC(=O)Nc1ccc2nc(C(=O)N3CC(CCl)c4c3cc(O)c3oc(C)nc43)cn2c1 (stereo not shown) [Compound 74]
Response: 1.66
